test: Pharmacokinetics after a single oral administration in male rats
Type: in vivo
testParameters: rat, in vivo, 3 mg/kg, read-out: Mean oral bioavailability (F)
measuredMetric: bioavailability

- compound: "CC1(C)C[C@@H]2CCCNc3cccc(n3)S(=O)(=O)NC(=O)c3ccc(-n4ccc(OCCC5C6(CC6)C56CC6)n4)nc3N1C2"
  valueReported: "76.9%"

====

target: CFTR-mediated chloride transport (Homo sapiens, UniProt P13569)
Sequence (P13569 whole entry): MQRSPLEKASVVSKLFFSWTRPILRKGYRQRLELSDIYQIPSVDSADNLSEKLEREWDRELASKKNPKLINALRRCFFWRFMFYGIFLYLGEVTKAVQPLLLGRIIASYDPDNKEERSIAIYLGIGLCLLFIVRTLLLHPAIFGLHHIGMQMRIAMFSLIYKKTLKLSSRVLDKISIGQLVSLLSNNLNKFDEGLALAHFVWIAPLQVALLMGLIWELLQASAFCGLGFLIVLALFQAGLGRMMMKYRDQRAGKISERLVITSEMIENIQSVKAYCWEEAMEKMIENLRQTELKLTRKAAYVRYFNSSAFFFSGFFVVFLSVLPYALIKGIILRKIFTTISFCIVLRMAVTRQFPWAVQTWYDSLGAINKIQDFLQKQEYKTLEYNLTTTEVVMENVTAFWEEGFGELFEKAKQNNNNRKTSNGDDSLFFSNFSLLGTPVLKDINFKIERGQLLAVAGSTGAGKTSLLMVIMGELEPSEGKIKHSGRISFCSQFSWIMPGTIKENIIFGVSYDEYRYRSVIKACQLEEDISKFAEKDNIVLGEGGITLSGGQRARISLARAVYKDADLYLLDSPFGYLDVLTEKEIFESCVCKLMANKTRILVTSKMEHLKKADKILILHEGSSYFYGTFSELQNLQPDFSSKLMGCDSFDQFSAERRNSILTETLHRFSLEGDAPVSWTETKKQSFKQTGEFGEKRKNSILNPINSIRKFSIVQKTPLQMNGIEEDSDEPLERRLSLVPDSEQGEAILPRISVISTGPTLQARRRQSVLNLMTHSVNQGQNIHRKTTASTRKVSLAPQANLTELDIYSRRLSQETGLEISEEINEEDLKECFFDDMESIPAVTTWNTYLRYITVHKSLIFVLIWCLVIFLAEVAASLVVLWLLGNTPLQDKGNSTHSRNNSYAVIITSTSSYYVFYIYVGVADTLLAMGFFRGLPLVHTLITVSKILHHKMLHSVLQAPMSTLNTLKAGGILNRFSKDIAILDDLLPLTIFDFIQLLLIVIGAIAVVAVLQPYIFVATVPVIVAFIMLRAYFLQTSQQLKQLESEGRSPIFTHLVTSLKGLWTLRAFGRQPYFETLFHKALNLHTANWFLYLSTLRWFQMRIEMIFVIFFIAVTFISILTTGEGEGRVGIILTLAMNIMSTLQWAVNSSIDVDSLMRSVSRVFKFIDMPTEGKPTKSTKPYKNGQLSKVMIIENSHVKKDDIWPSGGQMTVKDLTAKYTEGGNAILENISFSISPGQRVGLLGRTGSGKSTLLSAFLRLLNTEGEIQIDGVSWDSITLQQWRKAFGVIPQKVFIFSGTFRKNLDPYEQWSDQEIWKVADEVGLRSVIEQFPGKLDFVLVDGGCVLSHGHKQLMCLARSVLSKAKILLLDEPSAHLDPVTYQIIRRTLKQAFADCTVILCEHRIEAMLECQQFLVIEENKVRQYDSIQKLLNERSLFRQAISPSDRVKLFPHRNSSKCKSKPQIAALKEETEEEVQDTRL
test: Membrane potential dye assay in human intestinal epithelial enteroid cells
testParameters: 18-24 h incubation; acute 10 μM forskolin + 300 nM Compound III
pEC50: −log10 of the molar value.

- molecule: "CC1(C)C[C@@H]2CCCNc3cccc(n3)S(=O)(=O)NC(=O)c3ccc(-n4ccc(OCCC5C6(CC6)C56CC6)n4)nc3N1C2 [Compound I]"
  pEC50: "> 6.00"
